B1: SOAT1 (parent)
chain: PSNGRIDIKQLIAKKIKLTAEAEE

Variants of: B1
test-method-notes: protein stability index of a GFP-peptide fusion (GPS, HEK-293T) (PSI 1-6); higher = more stable;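 further: lentivirally expressed fusions sorted by FACS into six bins by GFP to DsRed ratio, PSI derived from sequencing read proportions per bin multiplied by bin number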
experimental-parameters: c terminus: a fixed tail appended
Each record here notes measured protein stability index.
Give the figure by itself; no unit, no explanation.

[
  {
    "mutation-name": "D7K",
    "protein stability index": 3.14
  },
  {
    "mutation-name": "T19Q",
    "protein stability index": 2.96
  },
  {
    "mutation-name": "N3A",
    "protein stability index": 4.25
  }
]

// query Look up protein stability index: `E21Q`
// result 3.05

// query Look up protein stability index: `Q10S`
// result 3.1

// query Look up protein stability index: `I8Q`
// result 3.8

// query Look up protein stability index: `D7F`
// result 2.83

// query Look up protein stability index: `I6C`
// result 3.26

// query Look up protein stability index: `P1L`
// result 3.06

// query Look up protein stability index: `R5P`
// result 4.16

// query Look up protein stability index: `L11Y`
// result 3.42

// query Look up protein stability index: `E21S`
// result 3.02

// query Look up protein stability index: `A20R`
// result 3.07

// query Look up protein stability index: `R5F`
// result 3.49

// query Look up protein stability index: `K14Q`
// result 3.22

// query Look up protein stability index: `K9P`
// result 3.69

// query Look up protein stability index: `K15I`
// result 2.48

These entries and their values trace back to the supplement of paper PMC10567573.
